# credit: patent EP4703388A1

TESTED_ON: T1, human TF ECD-His (hTF-his) (human, UniProt P13726 33-251)
T1 construct: also called bio-hTF-his; human TF-His protein
ASSAY_OVERVIEW: SPR Biacore T200, antibody on Protein A chip, TF-His as analyte, 1:1 model
Binary call on koff with cut-off 0.0007 s⁻¹: strictly below means Condition met, and equality or higher means Condition not met.

Look over these answered cases.
BINDER	ASSIGNED_CATEGORY
hu67-3 (antibody, human IgG1, kappa, V domains shown) VH: EVQLQESGPGLVKPSQTLSLTCTVSGFSLTNYGVNWIRQPPGKGLEWIGVIWSRGNTDYNAAFISRVTISKDTSKNQVSLKLSSVTAADTAVYYCARKDAVVATDALDYWGQGTTVTVSS VL: DIVMTQSPKSLAVSLGERATINCKASQDVSTAVAWYQQKPGQPPKLLIYSTSYRYTGVPDRFSGSGSGTDFTLTISSLQAEDVAVYYCQQHYSTPYTFGGGTKVEIKR	Condition met
hu67-14 (antibody, human IgG1, kappa, V domains shown) VH: EVTLKQSGPVLVKPTQTLTLTCTVSGFSLTNYGVNWIRQPPRKGLEWLGVIWSRGNTDYNAAFISRLTISKDNSKSQVVLKMTNMDPVDTATYYCARKDAVVATDALDYWGQGTTVTVSS VL: DIQMTQSHKFLSASVGDRVTITCKASQDVSTAVAWYQQKPGKSPKLLIYSTSYRYTGVPSRFSGSGSGTDFTFTISSLQPEDIATYYCQQHYSTPYTFGGGTKVEIKR	Condition met

**Query** Take the binder hu10H10-77 (antibody, V domains shown, H11+L9; Full-length IgG) VH: EVQLVQSGSELKKPGASVKVSCKASGYTFITYWIEWVKQRPGQGLEWMGDILPYSGSTNYNENFKGRATFSADTSVSTAYLQISSLKAEDTAVYYCARSGYYGNSGFAYWGQGTLVTVSS VL: DIQMTQSPSSLSASVGDRVTITCQSSQSLLSSGNQKNYLTWYQQKPGKAPKLLIYWASTRESGVPSRFSGSGSGTDFTLTISSLQPEDFATYYCQNDYTYPLTFGQGTKLEIK and say whether its koff is less than 0.0007 s⁻¹.
**Result** Condition met

**Query** Hi there! Is koff for chimeric antibody CH310 (antibody, human IgG1, kappa, V domains shown, Murine 310# variable regions + human constant regions) VH: EVQLQQSGPELVKPGASLKISCKASGYSFTGYYMNWVKQSPEKSLEWIGEINPSTGGSTYNQKFKAKATLTVDQSSNTAYMQLKSLTSEDSAVYYCARRELGGPFGYWGQGTPVTVSA VL: SIVMTQTPKFLLVSSGDRVTITCKASQSVSNGIAWYQQKPGQSPKLLIYFASNRYTGVPDRFTGSGYGTDFTFTISTVQAEDLAVYFCQQDYSSPWTFGGGTKLEIKR below 0.0007 s⁻¹, do you know?
**Result** Condition not met

**Query** Say whether its koff is strictly beneath 0.0007 s⁻¹. Entry: hu67-8 (antibody, human IgG1, kappa, V domains shown) VH: EVQLQESGPGLVKPSQTLSLTCTVSGFSLTNYGVNWIRQPPRKGLEWIGVIWSRGNTDYNAAFISRVTISKDNSKSQVSLKLSSVTAADTAVYYCARKDAVVATDALDYWGQGTTVTVSS VL: DIVMTQSPKSLAVSLGERATINCKASQDVSTAVAWYQQKPGQSPKLLIYSTSYRYTGVPDRFSGSGSGTDFTFTISSLQAEDVAVYYCQQHYSTPYTFGGGTKVEIKR
**Result** Condition met
